system: secretion of IL6 by OCI-LY3 ABC-DLBCL cells; experiment: Human IL6 Mesoscale assay (OCI-LY3); type: cell-based; settings: 24 h incubation, IL6 in supernatant
Quantity Name: IC50

# example entries with known answers
> print(dat)
                                   compound  quantity.name     result
1  CO[C@@H](C)c1c(NC(=O)Nc2cnc(C3CC3)c(Cl)c2)cnc(C)c1Br           IC50    > 15 µM
2  COC(C)c1c(C)cncc1NC(=O)Nc1cnc(-n2nccn2)c(Cl)c1 (racemic)           IC50  > 3.02 µM

Missing value: IC50, secretion of IL6 by OCI-LY3 ABC-DLBCL cells, entry COc1c(C)ncc(NC(=O)Nc2cnc(-n3nccn3)c(Cl)c2)c1[C@H](C)OC . Fill in? > 15 µM
